biological target: human O-GlcNAcase (Homo sapiens (Human), UniProt O60502); test: Fluorescence-based assay for determination of KI values for inhibition of O-GlcNAcase activity; type: biochemical; details: purified human O-GlcNAcase, 4-Methylumbelliferyl N-acetyl-β-D-glucosaminide substrate, pH 7.0, Cheng-Prusoff; read-out: Fluorescence-based hOGA Ki
Sequence (O60502 whole entry): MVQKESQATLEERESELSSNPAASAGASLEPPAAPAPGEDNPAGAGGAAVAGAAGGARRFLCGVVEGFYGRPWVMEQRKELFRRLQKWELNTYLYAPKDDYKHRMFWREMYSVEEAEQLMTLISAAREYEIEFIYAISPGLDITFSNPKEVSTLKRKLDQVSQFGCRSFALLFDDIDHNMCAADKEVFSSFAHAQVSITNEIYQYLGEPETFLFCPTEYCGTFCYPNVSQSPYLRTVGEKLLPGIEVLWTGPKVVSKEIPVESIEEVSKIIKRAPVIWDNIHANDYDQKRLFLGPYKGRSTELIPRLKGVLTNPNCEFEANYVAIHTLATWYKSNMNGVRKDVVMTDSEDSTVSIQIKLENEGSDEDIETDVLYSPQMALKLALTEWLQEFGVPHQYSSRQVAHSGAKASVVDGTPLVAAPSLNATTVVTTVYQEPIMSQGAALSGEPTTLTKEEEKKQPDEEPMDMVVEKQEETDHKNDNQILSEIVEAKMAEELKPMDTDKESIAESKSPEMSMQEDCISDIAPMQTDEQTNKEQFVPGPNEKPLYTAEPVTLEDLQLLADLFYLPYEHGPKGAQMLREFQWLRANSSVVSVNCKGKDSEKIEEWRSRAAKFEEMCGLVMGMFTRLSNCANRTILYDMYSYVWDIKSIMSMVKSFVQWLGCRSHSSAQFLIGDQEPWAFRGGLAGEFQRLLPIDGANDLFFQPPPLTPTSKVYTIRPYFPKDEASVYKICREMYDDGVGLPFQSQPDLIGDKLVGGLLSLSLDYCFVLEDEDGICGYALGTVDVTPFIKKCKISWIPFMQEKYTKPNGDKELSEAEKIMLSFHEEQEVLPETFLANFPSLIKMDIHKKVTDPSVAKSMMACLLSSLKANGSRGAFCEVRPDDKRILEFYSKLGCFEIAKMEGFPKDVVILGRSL
pKi: −log10 of the molar value.
Tick condition met if pKi is 9 or greater. Tick condition not met if pKi is less than 9.

>>> print(df.to_string())
                                   compound                               assaytarget      assignedlabel
0  C=CC[C@H](O)[C@H]1O[C@@H]2SC(N3CCC3)=N[C@@H]2[C@@H](O)[C@@H]1O (single isomer, unassigned) [Example 82]  human O-GlcNAcase (Homo sapiens (Human), UniProt O60502)  condition not met
1  CN(C)C1=N[C@@H]2[C@@H](O)[C@H](O)[C@@H]([C@@H](O)C(F)(F)F)O[C@@H]2S1 [Example 11]  human O-GlcNAcase (Homo sapiens (Human), UniProt O60502)      condition met
2  CCN(C)C1=N[C@H]2C(O[C@H]([C@H](C)O)[C@@H](O)[C@@H]2O)S1 (single isomer, unassigned) [Example 57]  human O-GlcNAcase (Homo sapiens (Human), UniProt O60502)      condition met
3  CNC1=N[C@@H]2[C@@H](O)[C@H](O)[C@@H]([C@@H](O)C(F)(F)F)O[C@@H]2S1 [Example 95]  human O-GlcNAcase (Homo sapiens (Human), UniProt O60502)      condition met
4  CC(C)(O)[C@H]1O[C@@H]2SC(N3CCC3)=N[C@@H]2[C@@H](O)[C@@H]1O [Example 77]  human O-GlcNAcase (Homo sapiens (Human), UniProt O60502)  condition not met
5  CCN(C)C1=N[C@@H]2[C@@H](O)[C@H](O)[C@@H]([C@@H](O)C(F)(F)F)O[C@@H]2S1 (single isomer, unassigned) [Example 211]  human O-GlcNAcase (Homo sapiens (Human), UniProt O60502)      condition met
6  CCCNC1=N[C@H]2C(O[C@H]([C@@H](O)CC)[C@@H](O)[C@@H]2O)S1 (single isomer, unassigned) [Example 47]  human O-GlcNAcase (Homo sapiens (Human), UniProt O60502)  condition not met
7  CCNC1=N[C@@H]2[C@@H](O)[C@H](O)[C@@H]([C@H](C)O)O[C@@H]2S1 (single isomer, unassigned) [Example 27]  human O-GlcNAcase (Homo sapiens (Human), UniProt O60502)      condition met

Problem: Hello, I need to know if CNC1=N[C@@H]2[C@@H](O)[C@H](O)[C@@H]([C@@H](O)C(F)F)O[C@@H]2S1 [Example 191] has measured pKi not below 9. Thanks!
Result: condition met

Problem: Dear colleague, could you confirm whether C=C[C@H](O)[C@H]1O[C@@H]2SC(N(C)C)=N[C@@H]2[C@@H](O)[C@@H]1O (single isomer, unassigned) [Example 63] has pKi at or above 9?
Result: condition met

###

Each entry below carries its reported log10 Ki.
biological target: human O-GlcNAcase (Homo sapiens (Human), UniProt O60502); test: Fluorescence-based assay for determination of KI values for inhibition of O-GlcNAcase activity; format: biochemical; details: purified human O-GlcNAcase, 4-Methylumbelliferyl N-acetyl-β-D-glucosaminide substrate, pH 7.0, Cheng-Prusoff; read-out: Fluorescence-based hOGA Ki
All values: log10 Ki [nM].

Solved cases (6 shown):
                                   compound                               assaytarget  testvalue
0  CCCC[C@H](O)[C@H]1O[C@@H]2SC(N(C)C)=N[C@@H]2[C@@H](O)[C@@H]1O (single isomer, unassigned)  human O-GlcNAcase (Homo sapiens (Human), UniProt O60502)       0.96
1  CNC1=N[C@@H]2[C@@H](O)[C@H](O)[C@@H](C(C)(C)O)O[C@@H]2S1  human O-GlcNAcase (Homo sapiens (Human), UniProt O60502)      -0.05
2  O[C@H]1[C@H](O)[C@@H]([C@H](O)C(F)(F)F)O[C@@H]2SC(NCCF)=N[C@H]12  human O-GlcNAcase (Homo sapiens (Human), UniProt O60502)       0.26
3  C[C@@H](O)[C@H]1O[C@@H]2SC(N(C)C)=N[C@@H]2[C@@H](O)[C@@H]1O  human O-GlcNAcase (Homo sapiens (Human), UniProt O60502)       0.56
4  CCCNC1=N[C@@H]2[C@@H](O)[C@H](O)[C@@H]([C@H](C)O)O[C@@H]2S1  human O-GlcNAcase (Homo sapiens (Human), UniProt O60502)      -1.30
5  CNC1=N[C@@H]2[C@@H](O)[C@H](O)[C@@H](C(C)(O)C(F)(F)F)O[C@@H]2S1 (stereo partly shown)  human O-GlcNAcase (Homo sapiens (Human), UniProt O60502)       0.10

Now consider a different compound.
Record CN(C)C1=N[C@@H]2[C@@H](O)[C@H](O)[C@@H](C(C)(O)C(F)(F)F)O[C@@H]2S1 (mixture of isomers) ; system human O-GlcNAcase (Homo sapiens (Human), UniProt O60502); log10 Ki = 0.50
